B1: CPEB3 Ribozyme (parent)
chain: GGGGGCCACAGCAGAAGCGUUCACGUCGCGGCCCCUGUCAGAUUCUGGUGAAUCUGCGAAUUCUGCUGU

Variants of: B1
Assay: self-cleavage, relative activity (ratio to wild type); higher = more cleavage; co-transcriptional
If the reported self-cleavage equals or exceeds 0.7, assign Criterion met. If not, assign Criterion not met.

Variant Code	Assigned Category
C12U G17A	Criterion not met
G2C G11U	Criterion not met
C45U A60G	Criterion met
C12A C45A	Criterion not met
C57U U67A	Criterion not met

q: Answer whether self-cleavage of C7G C63G is greater than or equal to 0.7.
a: Criterion not met

q: self-cleavage >= 0.7 for G2A ?
a: Criterion not met

q: # bool: self-cleavage of C7G A8U >= 0.7
a: Criterion not met

q: Check this variant for self-cleavage at or above 0.7: C24G G47A
a: Criterion not met

q: Determine whether measured self-cleavage meets or exceeds 0.7 for G14U U67C
a: Criterion not met

q: Dear colleague, could you confirm whether C34U A42C has self-cleavage at or above 0.7?
a: Criterion met

q: Can U21C U67A be said to have self-cleavage at or above 0.7?
a: Criterion met

q: State whether the measured self-cleavage reaches 0.7, counting equality as reaching it, for G56A U62A
a: Criterion met
